Test system: SW1353
assay text: Induction of TIMP3 protein level in human HTB-94 cells at 100 ug/ml incubated for 36 hrs by Western blotting analysis
Format: functional, cell-based
measurement conditions: dose 100.0 µg/ml
Activity calls are given as the source filed them. No cut-off for these calls is given here.
Outcome codes: 1.0 = active, 0.0 = inactive

{"columns": ["smiles code", "assay system", "group"],
 "data": [
  ["Nc1ccc(C(=O)Nc2ccc(C(=O)Nc3cc(S(=O)(=O)O)cc4cc(S(=O)(=O)O)cc(S(=O)(=O)O)c34)cc2)cc1", "SW1353", 0.0],
  ["O=C(Nc1ccc(C(=O)Nc2ccc(C(=O)Nc3cc(S(=O)(=O)O)cc4cc(S(=O)(=O)O)cc(S(=O)(=O)O)c34)cc2)cc1)Nc1ccc(C(=O)Nc2ccc(C(=O)Nc3cc(S(=O)(=O)O)cc4cc(S(=O)(=O)O)cc(S(=O)(=O)O)c34)cc2)cc1", "SW1353", 1.0],
  ["O=C(Nc1ccc(C(=O)Nc2cc(S(=O)(=O)O)cc3cc(S(=O)(=O)O)cc(S(=O)(=O)O)c23)cc1)c1ccc([N+](=O)[O-])cc1", "SW1353", 0.0],
  ["O=C(Nc1cc(S(=O)(=O)O)cc2cc(S(=O)(=O)O)cc(S(=O)(=O)O)c12)c1ccc([N+](=O)[O-])cc1", "SW1353", 0.0],
  ["Nc1ccc(C(=O)Nc2cc(S(=O)(=O)O)cc3cc(S(=O)(=O)O)cc(S(=O)(=O)O)c23)cc1", "SW1353", 0.0],
  ["Cc1ccc(C(=O)Nc2ccc(S(=O)(=O)O)c3cc(S(=O)(=O)O)cc(S(=O)(=O)O)c23)cc1NC(=O)c1cccc(NC(=O)Nc2cccc(C(=O)Nc3cc(C(=O)Nc4ccc(S(=O)(=O)O)c5cc(S(=O)(=O)O)cc(S(=O)(=O)O)c45)ccc3C)c2)c1", "SW1353", 1.0]
]}
